# TARGET_OF_ASSAY: Porcine DPP-IV (Sus scrofa, UniProt P22411)
# Construct: purchased Sigma-Aldrich Germany
# Sequence (P22411 whole entry): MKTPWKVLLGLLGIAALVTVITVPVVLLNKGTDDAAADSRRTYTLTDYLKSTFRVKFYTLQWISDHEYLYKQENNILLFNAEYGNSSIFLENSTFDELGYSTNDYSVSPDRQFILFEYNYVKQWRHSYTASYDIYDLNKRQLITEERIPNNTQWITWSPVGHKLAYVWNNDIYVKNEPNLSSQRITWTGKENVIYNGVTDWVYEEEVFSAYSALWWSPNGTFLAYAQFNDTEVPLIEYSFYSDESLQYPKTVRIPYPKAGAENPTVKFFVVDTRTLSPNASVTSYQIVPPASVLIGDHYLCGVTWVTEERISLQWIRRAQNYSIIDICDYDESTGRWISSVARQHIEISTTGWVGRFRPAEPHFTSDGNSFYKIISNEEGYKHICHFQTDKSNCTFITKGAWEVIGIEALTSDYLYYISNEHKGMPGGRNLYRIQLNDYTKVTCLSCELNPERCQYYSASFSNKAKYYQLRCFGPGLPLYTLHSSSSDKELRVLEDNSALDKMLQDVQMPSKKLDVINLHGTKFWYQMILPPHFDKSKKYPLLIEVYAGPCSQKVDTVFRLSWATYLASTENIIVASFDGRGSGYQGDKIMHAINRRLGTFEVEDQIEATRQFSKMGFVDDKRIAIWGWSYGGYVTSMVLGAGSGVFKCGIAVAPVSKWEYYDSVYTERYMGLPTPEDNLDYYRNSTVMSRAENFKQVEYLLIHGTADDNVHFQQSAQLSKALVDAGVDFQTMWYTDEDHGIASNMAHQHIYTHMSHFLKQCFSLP
# ASSAY_NOTES: Assay of DPP-IV enzyme inhibitory activity (spectrophotometric, Gly-Pro-pNA cleavage)
# Format: biochemical
# DETAILS: Porcine DPP-IV, Gly-Pro-pNA substrate, 30° C.; mean ± SD of three experiments except compound Nos. 133 & 139; read-out: IC50 (μM) Mean ± SD, inhibitory activity on DPP-IV enzyme activity
# Description: Assay of DPP-IV Enzyme Inhibitory Activity. The assay method is a modified method (as described by Welch et al, 1998) based on spectrophotometric determination of the product formed by penultimate proline cleaving activity of the enzyme. […] The percentage inhibition % I, is calculated using the formula: […]
MEASURE_NAME: IC50 (µM)

N#CC1CSCN1C(=O)CN(N)Cc1ccc([N+](=O)[O-])cc1 (stereo not drawn) | 35.8

1 = CCNN(CC(=O)N1CSCC1C#N)C(C)C (stereo not drawn)
2 = N#CC1CSCN1C(=O)CN(N)C1CCN(CC(=O)Nc2ccc(C(F)(F)F)cc2)CC1 (stereo not drawn)
Exam item: Which one would you say has the larger IC50 value: 1 , or 2 ? // output: label of the selected item
Marked response: 1

P = N#CC1CCCN1CC(=O)NN(CC(=O)N1CCCC1C#N)C1CCCCC1 (stereo not drawn)
Q = N#CC1CSCN1C(=O)CN(N)C1CCN(Cc2ccc([N+](=O)[O-])cc2)CC1 (stereo not drawn)
Exam item: Could you please tell me which of these two has the higher IC50: P or Q ? Kindly give the label for the entry you pick.
Marked response: P
